studyTarget: Cbl-b (Homo sapiens, UniProt Q13191)
Construct: Cbl-b-HiBit KI Jurkat Cells were purchased from Promega; host or cells: Cbl-b-HiBiT knock-in Jurkat cells
Sequence (Q13191 whole entry): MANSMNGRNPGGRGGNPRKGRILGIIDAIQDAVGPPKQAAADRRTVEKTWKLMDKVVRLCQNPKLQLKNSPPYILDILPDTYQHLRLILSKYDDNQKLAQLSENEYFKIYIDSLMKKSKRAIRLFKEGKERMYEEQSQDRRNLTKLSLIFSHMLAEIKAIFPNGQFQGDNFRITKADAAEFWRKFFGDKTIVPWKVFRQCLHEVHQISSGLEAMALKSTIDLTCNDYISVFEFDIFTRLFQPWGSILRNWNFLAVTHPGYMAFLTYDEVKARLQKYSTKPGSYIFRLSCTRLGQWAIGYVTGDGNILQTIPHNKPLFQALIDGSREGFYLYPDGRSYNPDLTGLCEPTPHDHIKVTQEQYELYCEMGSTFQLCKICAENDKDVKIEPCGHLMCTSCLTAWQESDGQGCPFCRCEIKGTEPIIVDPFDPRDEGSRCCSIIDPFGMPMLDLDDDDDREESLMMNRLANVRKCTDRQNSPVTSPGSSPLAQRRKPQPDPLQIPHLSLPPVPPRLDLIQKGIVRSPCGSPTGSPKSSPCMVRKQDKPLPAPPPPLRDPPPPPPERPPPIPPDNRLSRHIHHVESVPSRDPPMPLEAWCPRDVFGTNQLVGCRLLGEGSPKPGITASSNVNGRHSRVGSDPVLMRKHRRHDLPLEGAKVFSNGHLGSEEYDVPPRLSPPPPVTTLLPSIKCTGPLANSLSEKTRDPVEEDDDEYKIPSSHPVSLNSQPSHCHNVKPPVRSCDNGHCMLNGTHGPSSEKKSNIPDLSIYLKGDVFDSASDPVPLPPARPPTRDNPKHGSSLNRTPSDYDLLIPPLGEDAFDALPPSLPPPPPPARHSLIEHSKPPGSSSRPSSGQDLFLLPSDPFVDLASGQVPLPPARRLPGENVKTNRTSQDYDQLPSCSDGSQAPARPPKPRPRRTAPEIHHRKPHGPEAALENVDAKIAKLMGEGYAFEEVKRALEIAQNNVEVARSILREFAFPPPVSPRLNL
methodSummary: Cbl-b Degradation Method A (FACS, anti-Cbl-b antibody staining)
Assay type: cell-based
assayConditions: Jurkat, Cbl-b-HiBit KI Jurkat Cells, incubated at least 20 hours; maximum degradation observed; read-out: Cbl-b Degredation Method A Dmax (%)
Please go through the items and note down their Dmax.

Could you please provide reported Dmax for Cn1cnnc1C1(c2cccc(N3Cc4c(cc(CN5CCC[C@H](CN6CCN(C[C@H]7CC[C@@H](OC8CCN(c9ccc%10c(c9F)CN(C9CCC(=O)NC9=O)C%10=O)CC8)CC7)CC6)C5)cc4C(F)(F)F)C3=O)c2)COC1 (stereo partly shown) ? Thanks! < 35%

Could you please provide reported Dmax for CC(C)n1c(=O)n(C2CCC(=O)NC2=O)c2cccc(N3CCC(O[C@H]4CC[C@H](CN5CCC6(CC5)CN(Cc5cc7c(c(C(F)(F)F)c5)CN(c5cccc([C@]8(Cc9nncn9C)C[C@@H](C#N)C8)c5)C7=O)C6)CC4)CC3)c21 (stereo partly shown) ? Thanks! > 70%

Could you please provide reported Dmax for Cn1cnnc1C[C@]1(c2cccc(N3Cc4c(cc(CN5CCN(C[C@H]6CC[C@H](OC7CCN(c8ccc9c(c8)CC(=O)N9C8CCC(=O)NC8=O)CC7)CC6)CC5)cc4C(F)(F)F)C3=O)c2)C[C@H](C#N)C1 (stereo partly shown) ? Thanks! > 70%

Could you please provide reported Dmax for Cn1cnnc1C[C@]1(c2cccc(N3Cc4c(cc(N5CC6(CCN(CC7CCN(c8ccc9c(c8)C(=O)N(C8CCC(=O)NC8=O)C9=O)CC7)CC6)C5)cc4C(F)(F)F)C3=O)c2)C[C@@H](C#N)C1 (stereo partly shown) ? Thanks! 35 to 70%

###

studyTarget: Cbl-b (Homo sapiens, UniProt Q13191)
Construct: Cbl-b-HiBit KI Jurkat Cells were purchased from Promega; host or cells: Cbl-b-HiBiT knock-in Jurkat cells
methodSummary: Cbl-b Degradation Method B (Nano-Glo HiBiT lytic detection)
Assay type: cell-based
assayConditions: Cbl-b-HiBit KI Jurkat Cells, incubated at least 6-24 hours; half maximal degradation; read-out: Cbl-b Degredation Method B IC50
reportedEndpoint: DC50

Would you please give the reported DC50 of Cn1cnnc1CC1(c2cccc(N3Cc4c(cc(CN5CCC[C@H](CN6CC[C@@H](OC7CCN(c8ccc9c(c8F)CN(C8CCC(=O)NC8=O)C9=O)CC7)CC6(C)C)C5)cc4C(F)(F)F)C3=O)c2)CC(C#N)C1 (single isomer, unassigned) [Example 290] with Cbl-b (Homo sapiens, UniProt Q13191)? > 500 nM

Would you please give the reported DC50 of CC(C)n1c(=O)n(C2CCC(=O)NC2=O)c2ccc(N3CCC(CN4CCC5(CC4)CN(c4cc6c(c(C(F)(F)F)c4)CN(c4cccc([C@]7(Cc8nncn8C)C[C@@H](C#N)C7)c4)C6=O)C5)CC3)cc21 (stereo partly shown) [Example 192] with Cbl-b (Homo sapiens, UniProt Q13191)? < 5 nM

Would you please give the reported DC50 of Cn1cnnc1CC1(c2cccc(N3Cc4c(cc(CN5CCC(CN6CC(C7CN(c8ccc9c(c8)C(=O)N(C8CCC(=O)NC8=O)C9=O)C7)C6)CC5)cc4C(F)(F)F)C3=O)c2)COC1 (stereo not shown) [Example 83] with Cbl-b (Homo sapiens, UniProt Q13191)? > 500 nM

Would you please give the reported DC50 of Cn1cnnc1CC1(c2cccc(N3Cc4c(cc(CN5CCN(C[C@H]6CC[C@H](OC7CCN(c8ccc9c(c8)CC(=O)N9C8CCC(=O)NC8=O)CC7)CC6)CC5(C)C)cc4C(F)(F)F)C3=O)c2)CC(C#N)C1 (stereo partly shown) [Example 316] with Cbl-b (Homo sapiens, UniProt Q13191)? < 5 nM

###

studyTarget: Cbl-b (Homo sapiens, UniProt Q13191)
Construct: Cbl-b-HiBit KI Jurkat Cells were purchased from Promega; host or cells: Cbl-b-HiBiT knock-in Jurkat cells
methodSummary: Cbl-b Degradation Method B (Nano-Glo HiBiT lytic detection)
Assay type: cell-based
assayConditions: Cbl-b-HiBit KI Jurkat Cells, incubated at least 6-24 hours; half maximal degradation; read-out: Cbl-b Degredation Method B IC50
Please go through the items and note down their DC50.

Could you please provide reported DC50 for CC1c2nc(N3CCC(O[C@H]4CC[C@H](CN5CCC6(C5)CN(c5cc7c(c(C(F)(F)F)c5)CN(c5cccc([C@]8(Cc9nncn9C)C[C@@H](C#N)C8)c5)C7=O)C6)CC4)CC3)ccc2C(=O)N1C1CCC(=O)NC1=O (stereo partly drawn) ? Thanks! < 5 nM

Could you please provide reported DC50 for Cn1cnnc1C[C@]1(c2cccc(N3Cc4c(cc(CN5CCN(C[C@H]6CC[C@H](OC7CCN(c8cccc9c8nc(OC(F)F)n9C8CCC(=O)NC8=O)CC7)CC6)CC5(C)C)cc4C(F)(F)F)C3=O)c2)C[C@H](C#N)C1 (stereo partly drawn) ? Thanks! 5 to 50 nM

Could you please provide reported DC50 for Cn1cnnc1CC1(c2cccc(-n3cc4c(C(F)(F)F)cc(CN5CCC[C@@H](CN6CCC(CN7CCN(c8ccc9c(c8F)CN(C8CCC(=O)NC8=O)C9=O)CC7)CC6)C5)cc4n3)c2)COC1 (stereo partly drawn) ? Thanks! > 500 nM

Could you please provide reported DC50 for C[C@@H]1C[C@@H](CN2CCN(c3ccc4c(c3)C(=O)N(C3CCC(=O)NC3=O)C4=O)CC2)CN(Cc2cc3c(c(C(F)(F)F)c2)CN(c2cccc(C4(Cc5nncn5C)COC4)c2)C3=O)C1 (stereo partly drawn) ? Thanks! > 500 nM

Could you please provide reported DC50 for CC1c2nc(N3CCC(O[C@H]4CC[C@H](CN5CCN(Cc6cc(C(F)(F)F)c7cn(-c8cccc(C9(Cc%10nncn%10C)CC(C#N)C9)c8)nc7c6)C(C)(C)C5)CC4)CC3)ccc2C(=O)N1C1CCC(=O)NC1=O (stereo partly drawn) ? Thanks! 5 to 50 nM

Could you please provide reported DC50 for CC1c2nc(N3CCC(O[C@H]4CC[C@H](CN5CCN(Cc6cc7c(c(C(F)(F)F)c6)CN(c6cccc(C8(Cc9nncn9C9CC9)COC8)c6)C7=O)CC5)CC4)CC3)ccc2C(=O)N1C1CCC(=O)NC1=O (stereo partly drawn) ? Thanks! > 500 nM

Could you please provide reported DC50 for Cc1cc(N2CCC(O[C@H]3CC[C@H](CN4CCC5(CCN(c6cc7c(c(C(F)(F)F)c6)CN(c6cccc([C@]8(Cc9nncn9C)C[C@@H](C#N)C8)c6)C7=O)C5)C4)CC3)CC2)c(F)c2c1C(=O)N(C1CCC(=O)NC1=O)C2 (stereo partly drawn) ? Thanks! < 5 nM

Could you please provide reported DC50 for Cn1cnnc1CC1(c2cccc(N3Cc4c(cc(CN5CCN(C[C@H]6CC[C@H](OC7CCN(c8ccc9c(n8)CN(C8CCC(=O)NC8=O)C9=O)CC7)CC6)CC5)cc4C(F)(F)F)C3=O)c2)COC1 (stereo partly drawn) ? Thanks! < 5 nM

Could you please provide reported DC50 for CC1CN(Cc2cc3c(c(C(F)(F)F)c2)CN(c2cccc(C4(Cc5nncn5C)COC4)c2)C3=O)CCN1C[C@H]1CC[C@H](OC2CCN(c3ccc4c(c3F)CN(C3CCC(=O)NC3=O)C4=O)CC2)CC1 (stereo partly drawn) ? Thanks! < 5 nM

###

studyTarget: Cbl-b (Homo sapiens)
Construct: Cbl-b-HiBit KI Jurkat Cells were purchased from Promega; host or cells: Cbl-b-HiBiT knock-in Jurkat cells
methodSummary: Cbl-b Degradation Method B (Nano-Glo HiBiT lytic detection)
Type: cell-based
assayConditions: Cbl-b-HiBit KI Jurkat Cells, incubated at least 6-24 hours; half maximal degradation; read-out: Cbl-b Degredation Method B IC50
reportedEndpoint: DC50

Could you please provide reported DC50 for CC1c2nc(N3CCC(CN4CCN(CC5CCN(Cc6cc7c(c(C(F)(F)F)c6)CN(c6cccc([C@]8(Cc9nncn9C)C[C@@H](C#N)C8)c6)C7=O)C(C)(C)C5)CC4)CC3)ccc2C(=O)N1C1CCC(=O)NC1=O (stereo partly shown) [Example 277] ? Thanks! < 5 nM

Could you please provide reported DC50 for C[C@@H]1c2nc(N3CCC(O[C@H]4CC[C@H](CN5CCN(Cc6cc7c(c(C(F)(F)F)c6)CN(c6cccc(C8(Cc9nncn9C)CC(C#N)C8)c6)C7=O)[C@@H](C)C5)CC4)CC3)ccc2C(=O)N1C1CCC(=O)NC1=O (single isomer, unassigned) [Example 247] ? Thanks! < 5 nM

Could you please provide reported DC50 for Cn1cnnc1CC1(c2cccc(N3Cc4c(cc(CN5CCC(COCCOCCOc6ccc7c(c6)C(=O)N(C6CCC(=O)NC6=O)C7=O)CC5)cc4C(F)(F)F)C3=O)c2)COC1 (stereo not shown) [Example 89] ? Thanks! > 500 nM

Could you please provide reported DC50 for Cn1cnnc1CC1(c2cccc(N3Cc4c(cc(CN5CC(CN6CCN(C7CCN(c8ccc9c(c8)C(=O)N(C8CCC(=O)NC8=O)C9=O)CC7)CC6)C5)cc4C(F)(F)F)C3=O)c2)COC1 (stereo not shown) [Example 67] ? Thanks! > 500 nM
